In this section we review reported GI50 values for a set of molecules.
tested on: NCI-H460; assay: NCI tumour cell line growth inhibition, 48 h
Activity calls are given as the source filed them. Rule as the data show it: active = GI50 up to about 1.1 µM and inactive = higher.
metric name: GI50

molecule	recorded value
O=c1cc(-c2ccccc2)nc(/C=C(\O)c2ccncc2)n1-c1ccccc1	> 100 µM (inactive)
Cn1c(=O)oc2cc(C(=O)CN3CCN(Cc4ccc5c(c4)OCO5)CC3)c(Cl)cc21	> 100 µM (inactive)
NC(=O)C1=C(c2ccccc2)c2ccccc2C1=O	15.9 µM (inactive)
CC(C)=CCc1c(O)cc(O)c2c1OC(c1ccc(O)cc1)C(O)C2=O (stereo not given)	27.6 µM (inactive)
CC1=C(C(=O)Nc2cccc3c2C(=O)NC3=O)CC(C(=O)Nc2cccc3c2C(=O)NC3=O)=C(C)N1	> 100 µM (inactive)
O=C1C(Cl)C(c2ccccc2O)N1n1cnc2ccccc2c1=O (stereo not given)	35.2 µM (inactive)
Nc1ncc(Cc2ccc3c(c2)OCO3)c(N)n1	> 100 µM (inactive)
c1ccc(COCC2OC3c4ccccc4COC3C2OCc2ccccc2)cc1 (stereo not given)	71.6 µM (inactive)
Oc1c2c(nc3cc4c(cc13)OCO4)-c1ccccc1CCC2	> 50 µM (inactive)
COC(=O)C1=C(C(=O)OC)SC2(S1)C1=C(CCCC1)SC(C(=O)OC)=C2C(=O)OC	3.84 µM (inactive)

* * *

system: UACC-257; assay: NCI tumour cell line growth inhibition, 48 h
The source made the active and inactive calls. Cut-off read from the data, not from the text of the source: active = GI50 up to about 1.1 µM and inactive = higher. Numbered stars: 1 amine (or outer) side, 2 acyl side, 3 side chain; on linkers, the order of the positions; unused ones are H or OH. Bridge positions count the residues as written; N and C are the ends. Square brackets hold non-standard residues; d marks the D form. Peptide text beside a SMILES is read from it. * marks the point of attachment. ξ: configuration not given here. X33 = O=C(C(CCCCNO[*:3])N[*:1])[*:2]; Fmoc = O=C(OCC1c2ccccc2-c2ccccc21)*; ξW = NC(Cc1c[nH]c2ccccc12)C(=O)O; ξP = O=C(O)C1CCCN1
In this section we review reported GI50 values for a set of compounds.

compound	GI50
N#CC(c1ccccc1)c1cccc2ccccc12 (centres undefined)	24.4 µM (inactive)
CN(CCN)[C@H](CSSC[C@@H](c1ccccc1O)N(C)CCN)c1ccccc1O	14.9 µM (inactive)
Cc1cc(C)c(S(=O)(=O)N(CCCCCCN)OCCCON(CCCCCCN)S(=O)(=O)c2c(C)cc(C)cc2C)c(C)c1	1.69 µM (inactive)
NC(=O)CNC(=O)C1CCCN1C(=O)C1CCCCNOC(=O)CC[C@@H](NC(=O)OCC2c3ccccc3-c3ccccc32)C(=O)NC(Cc2c[nH]c3ccccc23)C(=O)N1 (some centres undefined) (Fmoc-[dE][ξW][X33][ξP]G-NH2; ester 1-3)	> 100 µM (inactive)
c1ccc(COCC2OC3c4ccccc4COC3C2OCc2ccccc2)cc1 (centres undefined)	61.2 µM (inactive)
CCn1c(=O)c2nc(SC)sc2n(-c2ccccc2)c1=O	> 100 µM (inactive)
CCOC(=O)c1c2ccccc2n2c(=O)n(C)nnc12	> 100 µM (inactive)
Cc1cccc2c1[nH]c1[nH]c(=O)[nH]c(=O)c12	> 100 µM (inactive)
CCOc1ccc(NCC(=O)N2CC(=O)Nc3ccccc32)cc1	> 100 µM (inactive)

* * *

system: RPMI-8226; assay: NCI tumour cell line growth inhibition, 48 h
Activity calls are given as the source filed them. Cut-off read from the data, not from the text of the source: active = GI50 up to about 1.1 µM and inactive = higher.
Classes used: Y (active), N (inactive)

compound	assigned label
C=C1C(=O)O[C@H]2[C@H]3O[C@@H](C[C@@H]12)[C@@]1(C)CC[C@H](O1)[C@H](C)CCC[C@H]3C	Y
CC1=NN(c2cccc(Cl)c2)C(=N/c2nc3ccccc3s2)/C1=C\C=C\c1ccccc1	N
c1ccc2c(c1)nc1ccccn12	N
Cc1nc2ccc(NCCN(C)C)c3c(=O)c4cc(O)ccc4n1c23	N
Cc1ccccc1NC(=O)/C(=N\NC(N)=S)C(C#N)c1ccccc1 (stereo not given)	N
Cc1ccc(/C=C2\CNC/C(=C\c3ccc(C)cc3)C2=O)cc1	Y
C[N+]12CCCCC1C(COc1cccc3cccnc13)CCC2 (stereo not given)	N
Cc1c(C)c2cc3c(=O)c(CCl)coc3c(C)c2oc1=O	N
CN1C/C(=C\c2ccccc2)C2=NN(C(N)=S)[C@H](c3ccccc3)[C@@H]2C1	Y
COc1cc2c3c(n(Cc4ccccc4)c(=O)c2cc1OC)-c1ccccc1C3=O	N

* * *

In this section we review reported GI50 values for a set of compounds.
system: ACHN; test: NCI tumour cell line growth inhibition, 48 h
Activity calls are given as the source filed them. No stated cut-off is given here; in the data, active = GI50 up to about 1.1 µM and inactive = higher. Square brackets hold non-standard residues; d marks the D form. Peptide text beside a SMILES is read from it. 2Nal = N[CH](Cc1ccc2ccccc2c1)C(=O)O

compound	GI50
O=C1CC(c2ccc(Cl)cc2)Oc2ccccc21 (stereo unspecified)	36.1 µM (inactive)
CC(=O)OC1CC2OC(Cc3ccccc32)O1 (stereo unspecified)	> 100 µM (inactive)
CC1=NN(C(=O)CC(=O)Nc2cccc(Cl)c2)C(=O)C1/N=N/c1ccc(C(=O)O)cc1 (stereo unspecified)	> 100 µM (inactive)
O=C(O)/C(O)=C\C(=O)c1ccc(Br)cc1	> 100 µM (inactive)
O=C(O)CN1C=C(C(=O)c2cc3ccccc3n2S(=O)(=O)c2ccccc2)CCC1	29.6 µM (inactive)
COc1ccc(/C=N/N=C(\N)NO)c(Cl)c1O	14.9 µM (inactive)
N#CC(c1ccccn1)c1nc2ccccc2[nH]1 (stereo unspecified)	> 100 µM (inactive)
CCc1nnc(-c2nsc3ccccc23)s1	> 100 µM (inactive)
O=C(N/C(=C\c1ccc([N+](=O)[O-])cc1)c1nc2cc(Cl)ccc2[nH]1)c1ccccc1	22 µM (inactive)
CS/C(=N\c1ccccc1Cl)NC(=O)c1ccc(Br)cc1	> 100 µM (inactive)
COc1nn(Cc2ccccc2F)c2ccc([N+](=O)[O-])cc12	> 100 µM (inactive)
CC(C)C(NC(=O)C(CCCCN)NC(=O)C(Cc1c[nH]c2ccccc12)NC(=O)C(Cc1ccc(O)cc1)NC(=O)C(CS)NC(=O)C(N)Cc1ccc2ccccc2c1)C(=O)NC(CS)C(=O)NC(C(N)=O)C(C)O (stereo unspecified) (H-[2Nal]CYWKVCT-NH2; configuration not given here)	> 12.5 µM (inactive)
O=C1C(Cl)C(c2ccccc2O)N1n1cnc2ccccc2c1=O (stereo unspecified)	39.4 µM (inactive)
c1ccc(-c2cc3[nH]c4ccccc4[nH]c-3cc(-c3ccccc3)nn2)cc1	24.9 µM (inactive)
O=C1Nc2ccc(Br)cc2C1=Nc1cccnc1	18.3 µM (inactive)
O=C(c1ccco1)N(C(=O)N1CCCCC1)c1ccccc1	> 100 µM (inactive)
Cn1c(C(C#N)c2cc(Cl)ncn2)nc2ccccc21 (stereo unspecified)	> 100 µM (inactive)
C/C(CC(=O)Nc1ccc(Cl)cc1)=N\NC(=O)C[n+]1ccccc1	> 100 µM (inactive)
Cn1c(=O)c2nc(COCc3nc4c(=O)n(C)c(=O)n(C)c4[nH]3)[nH]c2n(C)c1=O	> 100 µM (inactive)
O=c1[nH]c(=O)n([C@@H]2C[C@H](CO)[C@H](O)C2)cc1/C=C/Br	> 100 µM (inactive)
Cc1cc(S(=O)(=O)/N=C(\NN)NCC(=O)NN)c(S)cc1Cl	> 10 µM (inactive)

* * *

tested on: NCI/ADR-RES; test: NCI tumour cell line growth inhibition, 48 h
The source made the active and inactive calls. No stated cut-off is given here; in the data, active = GI50 up to about 1.1 µM and inactive = higher. Square brackets hold non-standard residues; d marks the D form. Peptide text beside a SMILES is read from it. 2Nal = N[CH](Cc1ccc2ccccc2c1)C(=O)O
Classes used: Y (active), N (inactive)

compound	assigned label
COC(=O)[C@]12CC[C@H]3CN(S(=O)(=O)c4ccc(C)cc4)[C@H]([C@H]31)[C@H](c1ccco1)N2S(=O)(=O)c1ccc(C)cc1	N
COC(=O)C(Nc1ccc(OC)cc1)c1ccccc1 (stereo not given)	N
CC(C)C(NC(=O)C(CCCCN)NC(=O)C(Cc1c[nH]c2ccccc12)NC(=O)C(Cc1ccc(O)cc1)NC(=O)C(CS)NC(=O)C(N)Cc1ccc2ccccc2c1)C(=O)NC(CS)C(=O)NC(C(N)=O)C(C)O (stereo not given) (H-[2Nal]CYWKVCT-NH2; configuration not given here)	N
Cc1cnoc1/N=C1\C=C(O)C(=O)c2ccccc21	N
CN(C)c1nc2n(CCO)ccnc-2c(=O)n1	N
COc1cc(/C=N/NC(=O)c2c(Cl)c(Cl)c(Cl)c(Cl)c2-c2nc3cc(C(=O)c4ccccc4)ccc3[nH]2)ccc1O	N
c1ccc2sc(SCSc3nc4ccccc4s3)nc2c1	N
COc1ccc(CCCNC(=O)c2cc(OC)c(OC)cc2CCO)cc1OC	N
S=C1Cc2c(-c3ccccc3)cc(-c3ccc(Cl)cc3)nc2-c2ccccc2N1	N
Nc1ncc(Cc2ccc3c(c2)OCO3)c(N)n1	N
C/C(=C/C(=O)Nc1ccccc1)Nc1onc(C)c1C	N
C/C1=C/C(C)CC(C)OC(=O)C(C)NC(=O)C(Cc2ccc(O)c(I)c2)N(C)C(=O)CNC(=O)C(C)C1 (stereo not given)	Y
O=c1c2c3ccccc3[nH]c2c2cccc3c2n1CCC3	N
O=[N+]([O-])/C(C(Cl)=C(Cl)Cl)=C(/Sc1ccccc1)N1CCCCC1	N
O=C1Nc2cccc3cc(NCC(O)CCl)cc1c23 (stereo not given)	N
COc1cc2c3c(n(Cc4ccccc4)c(=O)c2cc1OC)-c1ccccc1C3=O	N
O=C(O)c1cc([N+](=O)[O-])cc2c(=O)c3cnccc3[nH]c12	N
Cc1ccc(N/C(Sc2ccccc2)=C(/C(Cl)=C(Cl)Cl)[N+](=O)[O-])c(C)c1	N
CC1(C)OC(=O)N(c2ccccc2)C12C=Cc1cccc([N+](=O)[O-])c1O2 (stereo not given)	N
Cc1ccc(S(=O)(=O)N2CCN(CCO)CCN(S(=O)(=O)c3ccc(C)cc3)CCN(CCO)CC2)cc1	N
